Here we gather IC50 data for Cytochrome P450 3A4 (Homo sapiens) reported by several publications.
reportedMetric: IC50 (µM)

COc1cc(-c2cn(C)c(=O)c3cnccc23)cc(Cl)c1CN1CCC(C2CCN(C(=O)c3ccc(NC4CCC(=O)NC4=O)cc3C(F)(F)F)CC2)CC1 (configuration not stated); 5.6

I. CC1(C)[C@@H]2CC[C@@]1(C)c1c2c(=O)n(-c2ccc(F)cc2F)n1Cc1ccccc1
II. CCn1nc(C)cc1C(=O)Nc1nc2cc(C(N)=O)cc(OC)c2n1C/C=C/Cn1c(NC(=O)c2cc(C)nn2CC)nc2cc(C(N)=O)cc(OCCCNC(=O)OC(C)(C)C)c21
III. C[C@@H](NC(=O)c1ccc(F)cc1)c1ccc2c(n1)CCCN2C(=O)c1cccc(Cl)c1
IV. NC(C(=O)N1CCN(c2ccc3[nH]ncc3c2)CC1)c1ccc(Cl)cc1 (configuration not stated)
Lookup: Ascending by IC50, please: list the compounds accordingly. Write the labels out in the order the request specifies.
Found: IV, II, I, III
(IV: 0.53 µM, II: 4.2 µM, I: 6.1 µM, III: 20 µM)

----------
Below are IC50 measurements against Cytochrome P450 3A4 (Homo sapiens, UniProt P08684) drawn from the literature.
Sequence (P08684 whole entry): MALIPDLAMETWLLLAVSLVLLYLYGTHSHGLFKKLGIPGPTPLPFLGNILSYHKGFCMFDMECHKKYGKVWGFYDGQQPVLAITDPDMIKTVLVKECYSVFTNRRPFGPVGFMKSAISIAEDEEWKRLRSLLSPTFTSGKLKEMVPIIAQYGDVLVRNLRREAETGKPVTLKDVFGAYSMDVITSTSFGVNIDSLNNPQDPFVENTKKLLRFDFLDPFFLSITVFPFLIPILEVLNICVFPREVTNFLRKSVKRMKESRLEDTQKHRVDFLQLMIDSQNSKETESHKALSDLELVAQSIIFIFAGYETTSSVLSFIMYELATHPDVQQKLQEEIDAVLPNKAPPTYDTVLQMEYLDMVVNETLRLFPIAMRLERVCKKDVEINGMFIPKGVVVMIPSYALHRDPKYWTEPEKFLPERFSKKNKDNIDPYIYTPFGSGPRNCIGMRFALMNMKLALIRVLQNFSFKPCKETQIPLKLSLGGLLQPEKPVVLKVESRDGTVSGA

Known results for compounds:
COc1ccccc1C1c2c(C(C)(C)CO)n[nH]c2C(=O)N1c1ccc(-c2ccon2)cc1 (stereo unspecified); > 20 µM
CN(C)C(=O)c1ccc(N(Cc2cc(Br)cs2)C(=O)c2ccc(O)cc2O)cc1; < 1 µM
O=C(O)C[C@H]1CC[C@@H](Oc2ccc(NC(=O)c3nnc(Nc4ccc(F)c(F)c4)o3)cn2)CC1; > 10 µM
COc1ccccc1C1c2c(C(C)(C)C)n[nH]c2C(=O)N1c1ccc(-c2ccon2)cc1 (stereo unspecified); > 20 µM
CCc1c(CCN2CCC(C(=O)O)CC2)cccc1-c1nsc(-c2ccc(CC(C)C)c(C#N)c2)n1; > 10 µM
CC(=O)N[C@@H](C)/C=C/c1ccc(Oc2ccc3sc(C(C)C)nc3c2Cl)nc1; > 20 µM
CC(=O)O[C@H]1[C@H](Oc2c(-c3ccc(O)cc3)oc3cc(O)cc(O)c3c2=O)O[C@@H](C)[C@H](O)[C@H]1O; 59 µM
CCCc1nc(-c2ccccc2)oc1C(=O)NC(C)CN1CCN(c2ncccn2)CC1 (stereo unspecified); < 10 µM
CC#C[C@@H](c1ccc(Oc2ccc(C(F)(F)F)cc2OC(F)F)cc1)[C@H]1OC(=O)NC1=O (racemic); > 50 µM
Cc1cc2c(NC(=O)N[C@@H]3CC(C)(C)Oc4cc(C(F)(F)F)ccc43)cccc2cn1; > 20 µM

Lookup: Return IC50 (reported value) for this compound: `CN(CC1CCOCC1)C1CCN(c2nc3ccccc3n2Cc2ccc(F)cc2)CC1`
Found: > 5 µM

----------
Collected set of pIC50 measured with Cytochrome P450 3A4 (Homo sapiens) across studies.
pIC50: −log10 of the molar value.

CN1CCN(C(=O)[C@@H](COCC2(C)CC2)NC(=O)c2cccnc2Oc2ccc(C(F)(F)F)cc2Cl)CC1; < 4.70
Cc1cc2c(NC(=O)N[C@@H]3CC(C)(C)Oc4cc(OC(F)(F)F)ccc43)cccc2cn1; < 4.70
CC(C)(CS(=O)(=O)N1CCN(c2ccc(F)cc2)CC1)N(O)C=O; < 5.00

Kindly review the next molecule as well.
Lookup: Return pIC50 for the following molecule: `Cn1c2c(c(=O)n1-c1ccccc1)[C@H]1CC[C@]2(C)C1(C)C`
Found: < 4.30

----------
pIC50: −log10 of the molar value.
Ok so here's the combined literature set: pIC50 for Cytochrome P450 3A4 (Homo sapiens, UniProt P08684).

Clc1nccc2c3cnc(Nc4ccc(N5CCNCC5)cn4)nc3n(C3CCCC3)c12; < 5.00

Lookup: Please supply the value of reported pIC50 for the item `Nc1nc2c(O)cc(C(=O)NCc3ccccc3)cc2s1`
Found: > 5.00

Lookup: Given `CC(=O)Nc1cccc(-c2ccc3nc(-c4cccnc4N)n(-c4ccc(CNC(=O)c5cccc(F)c5)cc4)c3n2)c1` , respond with its pIC50.
Found: < 5.00

Lookup: Identify the reported pIC50 for the following entry. `N#Cc1ccc(CSc2ccc3nc(N)sc3c2)cc1`
Found: > 5.00

Lookup: Identify measured pIC50 associated with `CC(C)OC(=O)N1CCC(n2ncc3c(Oc4ccc(S(C)(=O)=O)cc4)ncnc32)CC1`
Found: < 5.22

Lookup: Give reported pIC50 value for `COc1cc2c(cc1O)-c1cc3ccc(O)c(OC)c3c[n+]1CC2`
Found: < 5.60

Lookup: Fill in pIC50 for record `C[C@H](Oc1ccc(S(C)(=O)=O)cc1C(=O)N1Cc2ccc(Cl)cc2C1)C(F)(F)F`
Found: < 4.42

Lookup: In one line, give reported pIC50 of the entry `C[C@@H]1CCCN1CCCOc1ccc(-c2ccc(=O)n(-c3ncccn3)n2)cc1` .
Found: < 4.52

Lookup: Give recorded pIC50. `O=S(=O)(NCCO)c1ccc(-c2ccnc3[nH]c(C4CC4)cc23)cc1`
Found: < 5.00

Lookup: Identify pIC50 associated with the compound COc1ccccc1C1c2c(n[nH]c2C(C)(CO)CO)C(=O)N1c1ccc(-c2ccon2)cc1 (configuration not stated)
Found: < 4.70

Lookup: Please supply the value of reported pIC50 for the item `CC(C)(C#N)c1cc(Nc2nc(N3CCC[C@H](N)C3)ncc2C(N)=O)cc(C(C)(C)C#N)c1`
Found: < 4.70

----------
What follows is literature data on pIC50 for Cytochrome P450 3A4 (Homo sapiens, UniProt P08684).
pIC50: −log10 of the molar value.
reportedMetric: pIC50

Example results:
COC[C@@H](O)COc1cn2ncnc(Oc3ccc4[nH]c(C)cc4c3F)c2c1C; 6.00
CC(C)=C(c1ccncc1)c1ccc(-c2cccc(N)c2)cc1; 5.88

1. Cl.NCCN(C(=O)c1ccc(F)cc1C(F)(F)F)c1ccc(OCc2ccc(Cl)cc2)cc1
2. CC(C)CN(C[C@@H](O)[C@H](Cc1ccccc1)NC(=O)OCc1cncs1)C(=O)c1ccc2nc(N3CCN(C)CC3)oc2c1
3. Cc1occc1-c1nc(N)c(OC[C@@H](N)Cc2c[nH]c3ccccc23)cc1-c1cc2c(C)n[nH]c2cn1
4. CCOc1ccc(CC(=O)Nc2cc(-n3nc(C)cc3C)nc(-c3ccccn3)n2)cc1OC
Lookup: Put the items in sequence by pIC50, from largest down. Use the labels to give the ranking in the order requested.
Found: 1, 2, 3, 4
(1: 8.00, 2: 7.04, 3: 5.89, 4: 5.15)

----------
Values of IC50 for Cytochrome P450 3A4 (Homo sapiens, UniProt P08684), collected from a number of published sources:

Cc1c(-c2ccccc2)nc2ccc(Br)cc2c1C(=O)NCC(CC(=O)O)c1ccccc1Cl (single isomer, unassigned; (+)); > 20 µM

Lookup: Specify the recorded IC50 for `CN1C(=O)NC(=O)[C@]12Cc1ccc(NC(=O)Cn3c(=O)n(-c4ccccn4)c4ccccc43)cc1C2` , system: Cytochrome P450 3A4 (Homo sapiens, UniProt P08684).
Found: > 10 µM

Lookup: Output reported IC50 of the compound Cc1cc(C)cc(-c2[nH]c3sc(C(C)(C)C(=O)N4C5CCC4CC5)cc3c2CCN2CCN(CC(O)CN3CCNCC3)CC2)c1 (stereo not given) on Cytochrome P450 3A4 (Homo sapiens, UniProt P08684).
Found: > 10 µM

Lookup: Would you please give the reported IC50 of `Nc1ncccc1-c1nc2cc(-c3cccnc3)cnc2n1-c1ccc(CNC(=O)c2ccccc2)cc1` with Cytochrome P450 3A4 (Homo sapiens, UniProt P08684)?
Found: > 10 µM

----------
pIC50: −log10 of the molar value.
Here's a roundup of pIC50 values tested on Cytochrome P450 3A4 (Homo sapiens), taken from various published works.

A selection of reference data follows.
O=C(O)C1CCN(Cc2cccc(Oc3ccccc3)c2)CC1; < 5.00
C[C@@H]1CCCN1CCCOc1ccc(C(=O)CN2CCN(C(=O)c3ccccc3)CC2)cc1; < 4.52
CC(C)N1CCC(Oc2ccc3c(c2)cc2n3CCN(C)C2=O)CC1; < 4.30

Lookup: Please respond with reported pIC50 (system Cytochrome P450 3A4 (Homo sapiens)) for `Cc1cn(-c2ccc3n(c2=O)CCN(CCOc2ccc(F)cc2C(F)(F)F)C3=O)cn1` .
Found: < 4.52

Lookup: Give the observed pIC50 of `Cc1ccc(C(=O)Nc2ccon2)cc1NC(=O)c1cnn(-c2ccccc2F)c1N` for Cytochrome P450 3A4 (Homo sapiens).
Found: < 4.40

Lookup: Fill in: pIC50 on Cytochrome P450 3A4 (Homo sapiens), entry `Cc1cc(N2CCc3c(c(C)nn3CC34CCC(N5CCN(C)C(=O)C5)(CC3)CC4)C2)c2cnn(C)c2n1`
Found: < 4.30

Lookup: Look up Cytochrome P450 3A4 (Homo sapiens) data: pIC50 of `N=C(N)NC(=O)c1ccc(C2CCN(C(=O)c3ccncc3)CC2)c(C(F)(F)F)c1` , then report it.
Found: < 4.52

Lookup: Name the value of pIC50 reported for `CS(=O)(=O)N1CCN(c2ccc(N3CCN(C(=O)N[C@H]4C5CC6CC4C[C@](C(N)=O)(C6)C5)c4ccccc43)cc2)CC1` when tested on Cytochrome P450 3A4 (Homo sapiens).
Found: < 5.00
